Tested on: HCV replicon cells
method: Cell-based HCV replicon assay (replicon RNA level by real time PCR, Taqman)
condition_context: Hepatitis C virus, 72 h, HCV replicon cells, harvested day 3, replicon RNA by real time PCR; given as number; read-out: EC90 (μM) range
# strict inequality: EC90 < 0.5 µM yields yes (1), everything else yields no (0)

>>> category_label("CCOc1cc2cc(-c3c(C)nc(NCc4nccs4)nc3N[C@@H]3C[C@H](CO)[C@@H](O)[C@H]3O)oc2c(C)n1")
"yes (1)"
>>> category_label("Cc1nc(NCC(F)(F)F)nc(N[C@@H]2C[C@H](COC(=O)N3CCCC3)[C@@H](O)[C@H]2O)c1-c1nc2ccccc2s1")
"no (0)"
>>> category_label("Cc1nc(NCC2CC2)nc(N[C@@H]2C[C@H](CO)[C@@H](O)[C@H]2O)c1-c1cc2cc(OCC(F)(F)F)nc(C)c2o1")
"yes (1)"
>>> category_label("Cc1nc(NCC2CC2)nc(N[C@@H]2C[C@H](CO)[C@@H](O)[C@H]2O)c1-c1cc2cc(OCC(C)(C)C)nc(C)c2o1")
"no (0)"
>>> category_label("CCOc1cc2cc(-c3c(C)nc(NC(C)C)nc3N[C@@H]3C[C@H](CO)[C@@H](O)[C@H]3O)oc2c(C)n1")
"no (0)"
>>> category_label("Cc1nc(NCC(F)(F)F)nc(N[C@@H]2CC[C@@H](O)C2)c1-c1nc2ccccc2s1")
"no (0)"

For CCOc1cc2cc(-c3c(C)nc(NCc4cc(OC)cc(OC)c4)nc3N[C@@H]3C[C@H](CO)[C@@H](O)[C@H]3O)oc2c(C)n1 , is the recorded EC90 below the cut-off of 0.5 µM? yes (1)

For Cc1nc(NCC(F)(F)F)nc(N[C@H]2C[C@H](O)[C@@H]3C[C@@H]32)c1-c1nc2ccccc2s1 , is the recorded EC90 below the cut-off of 0.5 µM? no (0)

For COCCNc1nc(C)c(-c2cc3cc(OCC(C)(C)C)nc(C)c3o2)c(N[C@@H]2C[C@H](CO)[C@@H](O)[C@H]2O)n1 , is the recorded EC90 below the cut-off of 0.5 µM? no (0)

----------
System: HCV replicon cells
method: Cell-based HCV replicon assay (replicon RNA level by real time PCR, Taqman)
condition_context: Hepatitis C virus, 72 h, HCV replicon cells, harvested day 3, replicon RNA by real time PCR; reported as range class; read-out: EC90 (μM) range
Give measured EC90 for each item. Keep answers brief.

>>> result("Nc1nc(Cl)c(-c2nc3ccccc3s2)c(N[C@@H]2C[C@H](CO)[C@@H](O)[C@H]2O)n1 [Example 105]")
"< 0.5 µM"
>>> result("CN(C)c1nc(N[C@@H]2C[C@H](CO)[C@@H](O)[C@H]2O)c(-c2nc3ccccc3s2)c(-c2cccs2)n1 [Example 415]")
"> 5 µM"
>>> result("Nc1nc(Cl)c(-c2cncs2)c(N[C@@H]2C[C@H](CO)[C@@H](O)[C@H]2O)n1 [Example 163]")
"> 5 µM"
>>> result("CCc1cc2cc(-c3c(Cl)nc(N)nc3N[C@@H]3C[C@H](CO)[C@@H](O)[C@H]3O)oc2c(C)n1 [Example 309]")
"< 0.5 µM"

For each listed entry, give its EC90.
1. CN(C)C(=O)c1ccc2oc(-c3c(Cl)nc(N)nc3N[C@@H]3C[C@H](CO)[C@@H](O)[C@H]3O)cc2c1 [Example 168]
2. Nc1nc(Cl)c(-c2cc3cnccc3o2)c(N[C@@H]2C[C@H](CO)[C@@H](O)[C@H]2O)n1 [Example 8]
3. CNc1nc(Cl)c(-c2cc3cc(OC)nc(C)c3o2)c(N[C@@H]2C[C@H](CO)[C@@H](O)[C@H]2O)n1 [Example 15]
4. Cc1ccc2nc(-c3c(Cl)nc(N)nc3N[C@@H]3C[C@H](CO)[C@@H](O)[C@H]3O)oc2c1 [Example 191]

1: > 5 µM; 2: 0.5 to 5 µM; 3: < 0.5 µM; 4: 0.5 to 5 µM

For each listed entry, give its EC90.
1. Cc1nccc2cc(-c3c(Cl)nc(N)nc3N[C@@H]3C[C@H](CO)[C@@H](O)[C@H]3O)oc12 [Example 305]
2. CN(C)c1ccc2sc(-c3c(Cl)nc(N)nc3N[C@@H]3C[C@H](CO)[C@@H](O)[C@H]3O)nc2c1 [Example 200]
3. CCCOCCNc1nc(C)c(-c2nc3ccccc3s2)c(N[C@@H]2C[C@H](CO)[C@@H](O)[C@H]2O)n1 [Example 227]
4. CNc1ccc2nc(-c3c(Cl)nc(N)nc3N[C@@H]3C[C@H](CO)[C@@H](O)[C@H]3O)sc2c1 [Example 196]
5. Nc1nc(N[C@@H]2C[C@H](CO)[C@@H](O)[C@H]2O)c(-c2ccccn2)c(-c2ccccn2)n1 [Example 162]

["< 0.5 µM", "< 0.5 µM", "< 0.5 µM", "< 0.5 µM", "> 5 µM"]

Identify the reported EC90 for the following entry. Cc1nc(NCC2CC2)nc(N[C@@H]2C[C@H](CO)[C@@H](O)[C@H]2O)c1-c1cc2cc(-c3cccs3)nc(C)c2o1 [Example 43] > 5 µM
